# target.system: Carnitine O-palmitoyltransferase 1, liver isoform (Rattus norvegicus)
# Sequence (P32198 whole entry, canonical isoform): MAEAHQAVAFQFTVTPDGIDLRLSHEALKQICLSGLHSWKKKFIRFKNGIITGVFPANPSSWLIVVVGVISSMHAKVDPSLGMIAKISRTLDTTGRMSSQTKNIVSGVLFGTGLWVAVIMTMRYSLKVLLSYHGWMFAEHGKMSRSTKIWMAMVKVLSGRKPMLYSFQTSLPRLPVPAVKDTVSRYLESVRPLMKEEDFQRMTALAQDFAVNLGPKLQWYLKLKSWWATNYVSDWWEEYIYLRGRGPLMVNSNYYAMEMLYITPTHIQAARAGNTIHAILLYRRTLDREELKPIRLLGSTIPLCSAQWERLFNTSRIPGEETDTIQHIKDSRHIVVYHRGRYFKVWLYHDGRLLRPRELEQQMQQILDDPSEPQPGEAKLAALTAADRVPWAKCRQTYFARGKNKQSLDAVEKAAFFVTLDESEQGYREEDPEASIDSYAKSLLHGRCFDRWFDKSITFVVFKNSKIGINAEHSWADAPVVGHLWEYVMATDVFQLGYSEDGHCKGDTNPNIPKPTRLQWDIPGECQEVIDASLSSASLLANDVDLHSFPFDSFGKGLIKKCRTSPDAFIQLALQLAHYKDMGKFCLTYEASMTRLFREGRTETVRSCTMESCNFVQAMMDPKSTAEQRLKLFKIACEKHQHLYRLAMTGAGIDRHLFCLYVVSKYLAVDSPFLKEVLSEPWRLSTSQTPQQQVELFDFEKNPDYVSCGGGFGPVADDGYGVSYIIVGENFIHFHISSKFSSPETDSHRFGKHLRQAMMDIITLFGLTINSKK
# protocol.summary: SUPPLEMENTARY: Inhibition of Carnitine palmitoyltransferase 1, liver isoform
Label MET when IC50 is strictly below 100 nM; otherwise label NOT MET.

Use the examples below as a reference point.
{"molecule": "Cc1cccc(S(=O)(=O)N2CCOc3ccc(C(=O)Nc4nc(CC(=O)O)cs4)cc32)c1", "category.label": "MET"}
{"molecule": "Cc1cc(-c2nc([C@H]3CCCCN3C(=O)COc3ccccc3)no2)no1", "category.label": "NOT MET"}
{"molecule": "COc1ccc(Cl)cc1S(=O)(=O)N1COc2ccc(C(=O)Nc3ccc(CC(=O)O)cc3)cc21", "category.label": "NOT MET"}
{"molecule": "O=C(NCCO)c1cccc(-c2n[nH]c([C@H]3CCCCN3C(=O)COc3ccccc3)n2)c1", "category.label": "NOT MET"}
{"molecule": "O=C(O)c1ccccc1CCc1ccc(NS(=O)(=O)c2ccc(Cl)cc2)cc1", "category.label": "NOT MET"}
{"molecule": "COc1ccc(Cl)cc1S(=O)(=O)N1CCCc2ccc(NC(=O)c3ccc(CC(=O)O)cc3)cc21", "category.label": "NOT MET"}

Q: # TODO verify IC50 < 100 nM strictly for this molecule: O=C(COc1ccccc1)N1CCCC[C@@H]1c1noc(-c2cccc3[nH][nH]c(=O)c23)n1
Result: MET

Q: # TODO verify IC50 < 100 nM strictly for this molecule: O=C(O)Cc1csc(NC(=O)c2ccc3c(c2)N(S(=O)(=O)c2cccc(Cl)c2)CCO3)n1
Result: MET

Q: # TODO verify IC50 < 100 nM strictly for this molecule: O=C1CN(c2cccc(-c3n[nH]c([C@H]4CCCCN4C(=O)COc4ccccc4)n3)c2)C(=O)N1
Result: NOT MET

Q: # TODO verify IC50 < 100 nM strictly for this molecule: COc1ccc(Cl)cc1S(=O)(=O)N1CCOc2ccc(C(=O)Nc3ccc(C(=O)O)c(F)c3)cc21
Result: MET

Q: # TODO verify IC50 < 100 nM strictly for this molecule: O=C(COc1ccccc1)N1CCCC[C@@H]1c1noc(-c2ccc3snnc3c2)n1
Result: NOT MET

Q: # TODO verify IC50 < 100 nM strictly for this molecule: O=C(NCc1ccc(-c2nnn[nH]2)cc1)c1nn(Cc2ccc(OC(F)F)cc2)c2ccc(F)cc12
Result: NOT MET

Q: # TODO verify IC50 < 100 nM strictly for this molecule: CCN(CC)C(=O)c1cncc(-c2noc([C@H]3CCCCN3C(=O)COc3ccccc3)n2)c1
Result: NOT MET

Q: # TODO verify IC50 < 100 nM strictly for this molecule: Cc1cc(C)cc(S(=O)(=O)n2ccc3ccc(C(=O)Nc4ccc(CC(=O)O)cc4)cc32)c1
Result: NOT MET

Q: # TODO verify IC50 < 100 nM strictly for this molecule: NC(=O)c1cn2ccc(-c3noc([C@H]4CCCCN4C(=O)COc4ccccc4)n3)cc2n1
Result: NOT MET

Q: # TODO verify IC50 < 100 nM strictly for this molecule: COc1ccc(Cl)cc1S(=O)(=O)N1CCc2c(C)cc(C(=O)Nc3ccc(C(=O)O)c(Cl)c3)cc21
Result: NOT MET

Q: # TODO verify IC50 < 100 nM strictly for this molecule: NC(=O)c1ccc(C#C[C@H]2CCCCN2C(=O)COc2ccccc2)cc1
Result: NOT MET
